assay: Elimination half life in Sprague-Dawley rat at 20 mg/kg, po; format: ADME, organism-based; set-up: dose 20 mg/kg, route oral; settings: in vivo, read-out: beta t1/2 (converted)
measured-metric: half-life (h)
Return type: number; implicit unit h.

Would you mind telling me what half-life value was observed for CC1=C(C(=O)Nc2nc3ccccc3s2)C(c2ccccc2)NC(=S)N1 (centres undefined) ?
5.5

Entry CC1=C(C(=O)Nc2nc3ccccc3s2)C(c2ccc(N(C)C)cc2)NC(=S)N1 (centres undefined) please
1.4

Subsequent entry: CC1=C(C(=O)Nc2nc3ccccc3s2)C(c2ccc(C(F)(F)F)cc2)NC(=S)N1 (centres undefined)
6

What do you get for CC1=C(C(=O)Nc2nc3ccccc3s2)C(c2ccc(F)cc2)NC(=S)N1 (centres undefined) ?
5.8

###

test: Partition coefficient, log P of the compound in PBS at 10 mM at pH 7.4 after 5 hrs by shake flask method; format: physicochemical
measured-metric: logD at 5 h
Response field accepts a number only; no unit should be typed.

Record request: logD at 5 h value, item CC1=C(C(=O)Nc2nc3ccccc3s2)C(c2ccc(N(C)C)cc2)NC(=S)N1 (centres undefined)
2.22

CC1=C(C(=O)Nc2nc3ccccc3s2)C(c2ccccc2)NC(=S)N1 (centres undefined) ?
2.03

Now consider CC1=C(C(=O)Nc2nc3ccccc3s2)C(c2ccc(C(F)(F)F)cc2)NC(=S)N1 (centres undefined) and answer again.
2.92

Can you handle CC1=C(C(=O)Nc2nc3ccccc3s2)C(c2ccc(F)cc2)NC(=S)N1 (centres undefined) next?
2.18

###

assay: Oral bioavailability in Sprague-Dawley rat at 20 mg/kg; type: ADME, organism-based; settings: in vivo
I'd appreciate it if you could supply bioavailability values for the items below.
Value expressed in %; do not type the unit.

So what does the record say about bioavailability for CC1=C(C(=O)Nc2nc3ccccc3s2)C(c2ccc(C(F)(F)F)cc2)NC(=S)N1 (centres undefined) ?
50.6

What would you report for CC1=C(C(=O)Nc2nc3ccccc3s2)C(c2ccccc2)NC(=S)N1 (centres undefined) ?
52.7

How about CC1=C(C(=O)Nc2nc3ccccc3s2)C(c2ccc(F)cc2)NC(=S)N1 (centres undefined) ?
51.9

// same read-out, input: CC1=C(C(=O)Nc2nc3ccccc3s2)C(c2ccc(N(C)C)cc2)NC(=S)N1 (centres undefined)
52.7

###

test system: Mycobacterium tuberculosis; test: Antitubercular activity against Mycobacterium tuberculosis H37Rv ATCC 27294 after 5 days by broth microdilution method; assay type: functional; conditions: H37Rv ATCC 27294, 120 h
We label by threshold. Values of MIC strictly beneath 1 µM are True. Values of 1 µM and up are False.

Does this compound meet the criterion MIC < 1 µM? CC1=C(C(=O)Nc2nc3ccccc3s2)C(c2ccccc2)NC(=S)N1 (stereo not given)
True

Try CC1=C(C(=O)Nc2nc3ccccc3s2)C(c2ccc(F)cc2)NC(=S)N1 (stereo not given) next.
True

Moving on to the next compound: CC1=C(C(=O)Nc2nc3ccccc3s2)C(c2ccccc2O)NC(=S)N1 (stereo not given)
False

How about this compound: CC1=C(C(=O)Nc2nc3ccccc3s2)C(c2ccccc2[N+](=O)[O-])NC(=S)N1 (stereo not given)
False

Entry COc1ccccc1C1NC(=S)NC(C)=C1C(=O)Nc1nc2ccccc2s1 (stereo not given) please
True

How about CC1=C(C(=O)Nc2nc3ccccc3s2)C(c2ccccc2Cl)NC(=S)N1 (stereo not given) ?
True

Could you do the same for COc1cc(C2NC(=S)NC(C)=C2C(=O)Nc2nc3ccccc3s2)cc(OC)c1O (stereo not given) , please?
False

Here is the next compound: CC1=C(C(=O)Nc2nc3ccccc3s2)C(c2ccc(Br)cc2)NC(=S)N1 (stereo not given)
True

Lookup CC1=C(C(=O)Nc2nc3ccccc3s2)C(c2ccc(N(C)C)cc2)NC(=S)N1 (stereo not given)
True

Now consider CC1=C(C(=O)Nc2nc3ccccc3s2)C(c2ccc([N+](=O)[O-])cc2)NC(=S)N1 (stereo not given) .
False

Param item: COc1cccc(C2NC(=S)NC(C)=C2C(=O)Nc2nc3ccccc3s2)c1O (stereo not given)
False

How about this compound: CC1=C(C(=O)Nc2nc3ccccc3s2)C(c2ccc(C(F)(F)F)cc2)NC(=S)N1 (stereo not given)
True

Then what about the compound CC1=C(C(=O)Nc2nc3ccccc3s2)C(c2ccc(Cl)cc2)NC(=S)N1 (stereo not given) ?
True

Same read-out for COc1ccc(C2NC(=S)NC(C)=C2C(=O)Nc2nc3ccccc3s2)cc1 (stereo not given) ?
True

Again, but for CC1=C(C(=O)Nc2nc3ccccc3s2)C(c2ccc(O)cc2)NC(=S)N1 (stereo not given)
False

And the next one, `NNC(=O)c1ccncc1` ?
True

Also CC1=C(C(=O)Nc2nc3ccccc3s2)C(c2cccc([N+](=O)[O-])c2)NC(=S)N1 (stereo not given) , if possible.
False

Please do the same for COc1ccc(C2NC(=S)NC(C)=C2C(=O)Nc2nc3ccccc3s2)cc1O (stereo not given) as well.
False

Thanks! And CC1=C(C(=O)Nc2nc3ccccc3s2)C(c2ccc(Cl)cc2Cl)NC(=S)N1 (stereo not given) ?
True

Now give it for COC(=O)c1ccc(C2NC(=S)NC(C)=C2C(=O)Nc2nc3ccccc3s2)cc1 (stereo not given) too.
False

###

Exercise: for every item that follows, state its recorded half-life.
assay: Elimination half life in Sprague-Dawley rat at 10 mg/kg, iv; type: ADME, organism-based; set-up: dose 10 mg/kg, route intravenous; conditions: in vivo, read-out: beta t1/2 (converted)
Write the value in h as a bare number.

Any idea what its half-life is? The compound is CC1=C(C(=O)Nc2nc3ccccc3s2)C(c2ccc(F)cc2)NC(=S)N1 (centres undefined)
2.8

Please do the same for CC1=C(C(=O)Nc2nc3ccccc3s2)C(c2ccccc2)NC(=S)N1 (centres undefined) as well.
2.6

Also CC1=C(C(=O)Nc2nc3ccccc3s2)C(c2ccc(N(C)C)cc2)NC(=S)N1 (centres undefined) ?
2.5

And then CC1=C(C(=O)Nc2nc3ccccc3s2)C(c2ccc(C(F)(F)F)cc2)NC(=S)N1 (centres undefined) , what is it?
2.6

###

experiment: AUC (0 to infinity) in Sprague-Dawley rat at 10 mg/kg, iv; type: ADME, organism-based; parameters: time infinity, dose 10 mg/kg, route intravenous; conditions: plasma
measured-metric: AUC(0-inf)

Fill in: AUC(0-inf) of CC1=C(C(=O)Nc2nc3ccccc3s2)C(c2ccc(F)cc2)NC(=S)N1 (centres undefined) is ___
1530 ng·h/mL

Now give it for CC1=C(C(=O)Nc2nc3ccccc3s2)C(c2ccccc2)NC(=S)N1 (centres undefined) too.
1500 ng·h/mL

Query CC1=C(C(=O)Nc2nc3ccccc3s2)C(c2ccc(N(C)C)cc2)NC(=S)N1 (centres undefined) next
1480 ng·h/mL

Check CC1=C(C(=O)Nc2nc3ccccc3s2)C(c2ccc(C(F)(F)F)cc2)NC(=S)N1 (centres undefined) too.
1640 ng·h/mL

###

assay: Cmax in Sprague-Dawley rat at 10 mg/kg, iv; type: ADME, organism-based; design: dose 10 mg/kg, route intravenous; details: in vivo
I'd be grateful if you could share measured Cmax for these entries.
Give the number; ng/mL is assumed, so skip it.

// returns reported Cmax for input CC1=C(C(=O)Nc2nc3ccccc3s2)C(c2ccc(F)cc2)NC(=S)N1 (centres undefined)
1500

Another molecule to look at: CC1=C(C(=O)Nc2nc3ccccc3s2)C(c2ccc(N(C)C)cc2)NC(=S)N1 (centres undefined)
1620

Then CC1=C(C(=O)Nc2nc3ccccc3s2)C(c2ccc(C(F)(F)F)cc2)NC(=S)N1 (centres undefined) ?
1730

Same read-out for CC1=C(C(=O)Nc2nc3ccccc3s2)C(c2ccccc2)NC(=S)N1 (centres undefined) ?
1800

###

assay: Tmax in Sprague-Dawley rat at 20 mg/kg, po; assay type: ADME, organism-based; design: dose 20 mg/kg, route oral; details: in vivo
measured-metric: Tmax (min)
Numeric only. Scale: min

// returns reported Tmax for input CC1=C(C(=O)Nc2nc3ccccc3s2)C(c2ccc(C(F)(F)F)cc2)NC(=S)N1 (centres undefined)
36

Field entry: CC1=C(C(=O)Nc2nc3ccccc3s2)C(c2ccccc2)NC(=S)N1 (centres undefined)
30

For CC1=C(C(=O)Nc2nc3ccccc3s2)C(c2ccc(N(C)C)cc2)NC(=S)N1 (centres undefined) then?
30

Also, CC1=C(C(=O)Nc2nc3ccccc3s2)C(c2ccc(F)cc2)NC(=S)N1 (centres undefined) please.
36

###

experiment: AUC (0 to infinity) in Sprague-Dawley rat at 20 mg/kg, po; type: ADME, organism-based; set-up: time infinity, dose 20 mg/kg, route oral; details: plasma
measured-metric: AUC(0-inf) (ng·h/mL)
API: value field is a number in ng·h/mL; no unit string.

Which AUC(0-inf) is reported for this compound? CC1=C(C(=O)Nc2nc3ccccc3s2)C(c2ccc(F)cc2)NC(=S)N1 (centres undefined)
810

Note, next up: CC1=C(C(=O)Nc2nc3ccccc3s2)C(c2ccccc2)NC(=S)N1 (centres undefined)
790

Can you check CC1=C(C(=O)Nc2nc3ccccc3s2)C(c2ccc(C(F)(F)F)cc2)NC(=S)N1 (centres undefined) next?
830

Try this compound too: CC1=C(C(=O)Nc2nc3ccccc3s2)C(c2ccc(N(C)C)cc2)NC(=S)N1 (centres undefined)
780

All figures here come from ChEMBL document CHEMBL3414518.
